- assayed.target: CK1δ (Homo sapiens)
- assay.name: In-house CK1d inhibition assay (TR-FRET)
- Assay type: biochemical
- condition.info: footnote b: in-house CK1d assay
So basically, if IC50 comes in under 200 nM it's true (1), and if it's 200 nM or more it's false (0).

{"columns": ["molecule", "label.value"],
 "data": [
  ["Clc1ccc2[nH]c(CNc3nc(N4CCNCC4)nc4c3ncn4-c3ccsc3)nc2c1 [SR-2876]", "true (1)"],
  ["NC1CCN(c2nc(NCc3nc4cc(Cl)ccc4[nH]3)c3ncn(-c4ccsc4)c3n2)CC1 [SR-2875]", "true (1)"],
  ["NC1CCN(c2nc(NCc3nc4cc(Cl)ccc4[nH]3)c3ncn(-c4cccc(F)c4)c3n2)C1 (centres unmarked) [SR-3098]", "true (1)"],
  ["CN1CCN(c2nc(NCc3nc4cc(Cl)ccc4[nH]3)c3ncn(-c4cccc(F)c4)c3n2)CC1 [SR-2870]", "false (0)"],
  ["Fc1cccc(-n2cnc3c(NCc4nc5ccccc5[nH]4)nc(N4CCCCC4)nc32)c1 [SR-3005]", "false (0)"],
  ["c1ccc(-c2cccc(-n3cnc4c(NCc5nc6ccccc6[nH]5)nc(N5CCOCC5)nc43)c2)cc1 [SR-3048]", "false (0)"]
]}

INPUT: Dear reviewer, please state whether Fc1cccc(-n2cnc3c(NCc4cccc5ccccc45)nc(N4CCOCC4)nc32)c1 [SR-3004] has IC50 strictly beneath 200 nM.
OUTPUT: false (0)

INPUT: And then Clc1ccc2[nH]c(CNc3nc(N4CCCNCC4)nc4c3ncn4-c3ccoc3)nc2c1 [SR-2917] , what is it?
OUTPUT: true (1)

###

- assayed.target: CK1δ (Homo sapiens, UniProt P48730)
- Sequence (P48730 whole entry): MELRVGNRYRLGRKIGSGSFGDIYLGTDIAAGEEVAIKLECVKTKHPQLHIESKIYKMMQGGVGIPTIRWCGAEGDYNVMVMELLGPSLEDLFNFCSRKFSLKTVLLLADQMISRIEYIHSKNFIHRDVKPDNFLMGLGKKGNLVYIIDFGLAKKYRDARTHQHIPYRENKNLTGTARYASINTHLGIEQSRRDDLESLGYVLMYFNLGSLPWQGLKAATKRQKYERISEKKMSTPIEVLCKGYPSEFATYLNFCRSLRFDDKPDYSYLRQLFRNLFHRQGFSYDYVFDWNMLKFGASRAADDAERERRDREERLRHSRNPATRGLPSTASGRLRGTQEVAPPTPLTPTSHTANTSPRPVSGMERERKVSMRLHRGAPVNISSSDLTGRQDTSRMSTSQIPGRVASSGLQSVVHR
- assay.name: In-house CK1d inhibition assay (TR-FRET)
- Type: biochemical
- condition.info: footnote b: in-house CK1d assay
quantity.measured: IC50 (nM)
Numeric answer only, unit nM assumed.

INPUT: Value lookup for IC50; key = CN1CCN(c2nc(NCc3nc4ccccc4[nH]3)c3ncn(-c4cccc(F)c4)c3n2)CC1
OUTPUT: 306

INPUT: And then Fc1cccc(-n2cnc3c(NCc4nc5ccccc5[nH]4)nc(N4CCCC4)nc32)c1 , what is it?
OUTPUT: 884

INPUT: And then C[C@@H]1CN(c2nc(NCc3nc4cc(Cl)ccc4[nH]3)c3ncn(-c4cccc(F)c4)c3n2)C[C@H](C)O1 , what is it?
OUTPUT: 830

INPUT: And then Fc1cccc(-n2cnc3c(NCc4nc5ccccc5[nH]4)nc(N4CCOCC4)nc32)c1 , what is it?
OUTPUT: 101

INPUT: And then CCOC(=O)c1ccc2[nH]c(CNc3nc(N4CCNCC4)nc4c3ncn4-c3ccoc3)nc2c1 , what is it?
OUTPUT: 687

INPUT: And then CCN1CCN(c2nc(NCc3nc4ccccc4[nH]3)c3ncn(-c4cccc(F)c4)c3n2)CC1 , what is it?
OUTPUT: 589

INPUT: And then O=[N+]([O-])c1cccc2[nH]c(CNc3nc(N4CCOCC4)nc4c3ncn4-c3cc(F)cc(F)c3)nc12 , what is it?
OUTPUT: 75

INPUT: And then OC1CN(c2nc(NCc3nc4ccccc4[nH]3)c3ncn(-c4cccc(F)c4)c3n2)C1 , what is it?
OUTPUT: 482

###

- assayed.target: FLT3 (Homo sapiens)
- Construct: Reaction Biology Corporation (contract assay)
- assay.name: In vitro kinase assay, FLT3 (Reaction Biology Corporation)
- Assay type: biochemical
- condition.info: determined by Reaction Biology Corporation; read-out: IC50 FLT3
So basically, if IC50 comes in under 300 nM it's Fulfilled, and if it's 300 nM or more it's Not fulfilled.

{"columns": ["substance.smiles", "assayed.target", "label.value"],
 "data": [
  ["c1ccc2[nH]c(CNc3nc(N4CCOCC4)nc4c3ncn4C3CCCC3)nc2c1", "FLT3 (Homo sapiens)", "Not fulfilled"],
  ["N#Cc1ccc2[nH]c(CNc3nc(N4CCOCC4)nc4c3ncn4-c3ccsc3)nc2c1", "FLT3 (Homo sapiens)", "Fulfilled"],
  ["CN1CCN(c2nc(NCc3nc4cc(Cl)ccc4[nH]3)c3ncn(-c4ccoc4)c3n2)CC1", "FLT3 (Homo sapiens)", "Fulfilled"],
  ["FC(F)(F)c1ccc2[nH]c(CNc3nc(N4CCOCC4)nc4c3ncn4-c3ccsc3)nc2c1", "FLT3 (Homo sapiens)", "Not fulfilled"],
  ["Fc1cccc(-n2cnc3c(NCc4nc5cc(Cl)ccc5[nH]4)nc(N4CCNCC4)nc32)c1", "FLT3 (Homo sapiens)", "Not fulfilled"],
  ["Clc1ccc2[nH]c(CNc3nc(N4CCOCC4)nc4c3ncn4-c3ccoc3)nc2c1", "FLT3 (Homo sapiens)", "Fulfilled"]
]}

Now take the following compound into account.
INPUT: Dear reviewer, please state whether CS(=O)(=O)c1cccc2[nH]c(CNc3nc(N4CCOCC4)nc4c3ncn4-c3ccsc3)nc12 has IC50 strictly beneath 300 nM.
OUTPUT: Fulfilled

###

- assayed.target: FLT3 (Homo sapiens, UniProt P36888)
- Construct: Reaction Biology Corporation (contract assay)
- Sequence (P36888 27-993): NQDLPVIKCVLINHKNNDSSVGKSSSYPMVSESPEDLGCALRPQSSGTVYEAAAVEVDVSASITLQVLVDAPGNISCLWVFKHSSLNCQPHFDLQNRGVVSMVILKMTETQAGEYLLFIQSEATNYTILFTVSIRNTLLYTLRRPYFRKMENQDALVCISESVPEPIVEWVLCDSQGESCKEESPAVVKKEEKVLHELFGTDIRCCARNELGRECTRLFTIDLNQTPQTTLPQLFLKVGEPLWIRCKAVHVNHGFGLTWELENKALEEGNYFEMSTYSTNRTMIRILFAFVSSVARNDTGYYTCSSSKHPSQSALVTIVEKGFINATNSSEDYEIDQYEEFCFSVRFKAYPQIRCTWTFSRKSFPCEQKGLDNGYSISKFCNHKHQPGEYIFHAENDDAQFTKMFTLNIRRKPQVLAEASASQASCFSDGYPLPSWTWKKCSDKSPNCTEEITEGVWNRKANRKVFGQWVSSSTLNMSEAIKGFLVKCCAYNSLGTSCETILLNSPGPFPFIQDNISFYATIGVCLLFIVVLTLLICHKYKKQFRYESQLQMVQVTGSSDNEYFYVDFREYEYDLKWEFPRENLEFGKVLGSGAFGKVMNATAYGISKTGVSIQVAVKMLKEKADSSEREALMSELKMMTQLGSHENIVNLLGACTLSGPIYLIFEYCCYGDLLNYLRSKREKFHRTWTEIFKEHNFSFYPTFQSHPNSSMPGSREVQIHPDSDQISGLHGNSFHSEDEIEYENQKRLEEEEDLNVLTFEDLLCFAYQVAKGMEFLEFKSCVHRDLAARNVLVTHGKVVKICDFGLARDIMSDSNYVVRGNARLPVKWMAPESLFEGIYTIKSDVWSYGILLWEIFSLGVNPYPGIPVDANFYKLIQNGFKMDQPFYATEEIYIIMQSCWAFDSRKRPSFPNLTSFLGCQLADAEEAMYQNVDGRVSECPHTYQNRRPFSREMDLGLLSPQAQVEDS
- assay.name: In vitro kinase assay, FLT3 (Reaction Biology Corporation)
- Assay type: biochemical
- condition.info: 10 μM ATP; read-out: FLT3 IC50
quantity.measured: pIC50
# reply with the number alone; pIC50 is -log10 of concentration in mol/L

INPUT: Value lookup for pIC50; key = O=[N+]([O-])c1cccc2[nH]c(CNc3nc(N4CCOCC4)nc4c3ncn4-c3ccsc3)nc12
OUTPUT: 6.52

###

- Tested on: RXF393 (renal)
- assay.name: NCI Dose Growth Inhibition assay (NCI-60)
- Assay type: cell-based
- condition.info: Homo sapiens, RXF 393; RXF393 (renal); read-out: GI50
Catalogue of GI50 values

Consider the following illustrative entries.
{"columns": ["compound", "GI50"],
 "data": [
  ["Clc1ccc2[nH]c(CNc3nc(N4CCNCC4)nc4c3ncn4-c3ccoc3)nc2c1 [SR-2889]", "< 0.01 µM"],
  ["Fc1cccc(-n2cnc3c(NCc4nc5cc(Cl)ccc5[nH]4)nc(N4CCNCC4)nc32)c1 [SR-2890]", "0.041 µM"],
  ["COc1ccc2[nH]c(CNc3nc(N4CCNCC4)nc4c3ncn4-c3ccoc3)nc2c1 [SR-2891]", "0.049 µM"],
  ["CN1CCN(c2nc(NCc3nc4cc(Cl)ccc4[nH]3)c3ncn(-c4ccoc4)c3n2)CC1 [SR-2849]", "0.017 µM"]
]}

INPUT: Value lookup for GI50; key = c1ccc2[nH]c(CNc3nc(N4CCOCC4)nc4c3ncn4-c3ccsc3)nc2c1 [SR-653234]
OUTPUT: 0.026 µM
